Test system: A498
Test: Growth inhibition of human A498 cells at 10 uM relative to control
Type: functional
Conditions: read-out: GI
observable: inhibition of growth at 10 µM

compound | study target | value observed
CCOC(=O)C1=CSC2=NC(/C=C/c3cc(OC)c(OC)c(OC)c3)=CC(c3cc(OC)c(OC)c(OC)c3)N12 (stereo not drawn) | A498 | < 10%
CC1=CSC2=NC(/C=C/c3cccs3)=CC(c3cccs3)N12 (stereo not drawn) | A498 | < 10%
C1=CN2C(=NC(/C=C/c3cccs3)=CC2c2cccs2)S1 (stereo not drawn) | A498 | < 10%
